Parameter: pKi. Scope: all listed entries.
- Tested on: human 5-hydroxytryptamine-2C (h5-HT2C) receptor (Homo sapiens)
- Construct: expressed in transfected cells; host or cells: CHO (Chinese Hamster Ovary) cells; membranes
- Sequence (P28335 33-458): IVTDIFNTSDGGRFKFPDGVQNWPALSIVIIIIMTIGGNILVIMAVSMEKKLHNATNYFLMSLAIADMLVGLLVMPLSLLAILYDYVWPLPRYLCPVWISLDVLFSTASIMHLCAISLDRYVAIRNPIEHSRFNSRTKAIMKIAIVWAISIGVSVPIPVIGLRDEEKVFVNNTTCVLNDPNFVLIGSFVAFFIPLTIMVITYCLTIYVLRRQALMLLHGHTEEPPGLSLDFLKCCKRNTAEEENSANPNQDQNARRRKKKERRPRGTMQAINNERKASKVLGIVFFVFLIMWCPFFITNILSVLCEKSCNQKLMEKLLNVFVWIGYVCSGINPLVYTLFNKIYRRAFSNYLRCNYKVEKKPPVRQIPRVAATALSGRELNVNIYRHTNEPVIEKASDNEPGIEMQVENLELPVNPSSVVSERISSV
- Experiment summary: [125I]DOI binding to membranes of CHO cells expressing the human 5-HT2C receptor
- Condition label: [125I]DOI radioligand, CHO cell membranes, room temperature 60 min; read-out: 5-HT2C Affinity Ki
Conceptually, pKi converts a concentration in mol/L into minus its log10.

Below, 5 molecules whose answers are already recorded.
NCC1Cc2cccc(-c3ccsc3)c2O1 (racemic) [Example 44]
8.52
CNCC1Cc2cccc(-c3ccccc3Cl)c2O1 (single isomer, unassigned; (-)) [Example 411]
8.59
COc1cc2c(c(-c3cccc(C)c3C)c1)OC(CN)C2 (racemic)
7.59
NCC1Cc2cccc(-c3ccc(F)cc3F)c2O1 (single isomer, unassigned; (-)) [Example 148]
7.92
COc1ccccc1-c1cc(Cl)cc2c1OC(CN)C2 (racemic)
8.52

Kindly consider the entry below.
// pKi value for NCC1Cc2cccc(-c3ccsc3)c2O1 (single isomer, unassigned; (-)) [Example 46] : 7.27

---

- Tested on: human 5-hydroxytryptamine-2C (h5-HT2C) receptor (Homo sapiens)
- Construct: expressed in transfected cells; host or cells: CHO (Chinese Hamster Ovary) cells; membranes
- Experiment summary: [125I]DOI binding to membranes of CHO cells expressing the human 5-HT2C receptor
- Condition label: [125I]DOI radioligand, CHO cell membranes, room temperature 60 min; read-out: 5-HT2C Affinity Ki
pKi: −log10 of the molar value.
Would you mind labelling by pKi? At or over 8 is yes, under is no.

Use these answered entries as a reference point.
CNCC1Cc2cc(C)cc(-c3cccc(Cl)c3)c2O1 (racemic)
yes
NCC1Cc2cc(Cl)cc(-c3ccccc3F)c2O1 (racemic)
yes
NCC1Cc2cc(C(F)(F)F)cc(-c3cccc(C(F)(F)F)c3)c2O1 (racemic)
no
NCC1Cc2cccc(-c3cccc4ccccc34)c2O1 (racemic)
no
CNCC1Cc2cccc(-c3cccc(F)c3)c2O1 (racemic)
yes
CNCC1Cc2cc(C(F)(F)F)cc(-c3cccc(C)c3)c2O1 (racemic)
no

Please check the record NCC1Cc2cc(F)cc(-c3ccc(Cl)cc3Cl)c2O1 (racemic) and state if its pKi is at or above 8. yes

Hello, I need to know if CNCC1Cc2cc(C)cc(-c3ccc(Cl)cc3)c2O1 (racemic) has measured pKi not below 8. Thanks! yes

Confirm if pKi reported for the compound COc1cccc(-c2cc(C)cc3c2OC(CN)C3)c1OC (racemic) is 8 or above. yes

Confirm if pKi reported for the compound CNCC1Cc2cccc(-c3ccccc3C)c2O1 (racemic) [Example 406] is 8 or above. yes

Determine whether this compound has pKi no lower than 8: CNCC1Cc2cc(-c3ccccc3)cc(-c3cccc(C)c3)c2O1 (racemic) no

Hello, I need to know if CNCC1Cc2cc(-c3ccccc3)cc(-c3ccccc3F)c2O1 (racemic) has measured pKi not below 8. Thanks! no

// inclusive: pKi at least 8? input: CNCC1Cc2cc(C)cc(-c3ccccc3F)c2O1 (racemic) yes

Threshold query (pKi >= 8) on CCCCc1ccc(-c2cc(C(F)(F)F)cc3c2OC(CN)C3)cc1 (racemic) no

Values were extracted from patent US7435837B2.
